- TARGET UNDER TEST: T1, PUF4 RNA-binding domain (Saccharomyces cerevisiae, UniProt P25339 537-888)
- T1 sequence: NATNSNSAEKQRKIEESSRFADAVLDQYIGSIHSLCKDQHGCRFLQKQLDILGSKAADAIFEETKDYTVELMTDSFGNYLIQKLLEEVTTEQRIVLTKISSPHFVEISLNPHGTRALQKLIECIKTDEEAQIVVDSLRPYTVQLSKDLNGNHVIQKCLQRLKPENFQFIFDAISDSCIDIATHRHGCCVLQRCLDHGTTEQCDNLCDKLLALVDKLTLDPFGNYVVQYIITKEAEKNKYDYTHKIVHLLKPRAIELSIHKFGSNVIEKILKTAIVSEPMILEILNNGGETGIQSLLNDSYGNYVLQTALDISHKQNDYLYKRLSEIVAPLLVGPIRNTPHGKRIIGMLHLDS
- EXPERIMENT DESCRIPTION: Mg; RNA-MaP; 20 mM Na-HEPES pH 7.4, 30 mM KOAc, 0.75 mM MgCl2, 0.1% Tween-20, 5% glycerol, 0.1 mg/mL BSA, 2 mM DTT; 25 C; 0.0125-409.6 nM protein
- COND: tags: N-His6-TEV cleaved; C-SNAP kept, Cy3B-labelled; label: tethered on chip by stalled RNA polymerase
pKd: −log10 of the molar value.
Given measured pKd, output 1 if it is greater than or equal to 7 and -1 if not.

1. UCUCUUUGUGUAAUUAUCUCUU (ssRNA) [Ib_S1_P5E.1_K5.1_C5.1_H5.1_[A4G]_A5.1_[T6A]_F5.1_T5.1] :: 1
2. ACAAACUCACACUUAUUAGCACAAAC (ssRNA) [Id_ii_S3_P5E.4_K5.3_C5.2_[C-2T]_[T-1C]_H5.3_A5.1_F5.1_T5.2_[T11G]_[A12C]] :: -1
3. UCUCUUCUUGUUCUAUAUAUAUCUCUU (ssRNA) [Ie_S1_P3E.2_K3.1_C3.2_H3.1_[+3TCT]_A3.1_F3.1_T3.2] :: 1
4. Id_ii_S4_P3E.2_K3.1_C3.2_[T-1C]_H3.1_A3.1_F3.1_T3.2_[A10T] (ssRNA) RNA: UUUGACAACUGAUCGUUCUUUCUCCUGUAUAUAUUUUCUUUCUCGAUCAGUUGUCUUU :: 1
5. Id_ii_S2_P3E.3_K3.2_C3.2_[C-2T]_[T-1G]_H3.2_A3.1_F3.1_T3.2_[T9A] (ssRNA) RNA: UUUGAUUAAUAUGAUAUCGUUCUUUCUUGUAUAUAUAAAUUCUUUCUCGAUAUCAUAUUAAUCUUU :: 1
6. Id_ii_S2_P4E.2_K4.1_C4.2_[C-2T]_[T-1A]_H4.1_A4.1_F4.1_T4.2_[G10T] (ssRNA) RNA: UUUGAUUAAUAUGAUAUCGUUCUUUCUUAUGUAUAUUAUUUUCUUUCUCGAUAUCAUAUUAAUCUUU :: 1
7. Ic_S2_P4E.1_K4.1_C4.1_H4.1_A4.1_[T5A]_[A6T]_[T7C]_F4.1_[T8G]_[A9C]_T4.1 (ssRNA) RNA: UUUGAUUAAUAUGAUAUCGUUCUUUCUUGUAAUCGCUUCUUUCUCGAUAUCAUAUUAAUCUUU :: -1
8. UCUCUUAGACACUAUACCUCUCUU (ssRNA) [Id_ii_S1_P3E.4_K3.3_C3.2_[C-2A]_[T-1G]_H3.3_A3.1_F3.1_T3.2_[T9C]_[A10C]] :: -1
9. UCUCUUUGUAUAUAAAUCUCUU (ssRNA) [Ic_S1_P5E.1_K5.1_C5.1_H5.1_A5.1_[T6A]_[A7T]_F5.1_[T8A]_[T9A]_T5.1] :: 1
10. Ic_S2_P4E.1_K4.1_C4.1_H4.1_A4.1_[T5C]_[T7G]_F4.1_[A9T]_T4.1 (ssRNA) RNA: UUUGAUUAAUAUGAUAUCGUUCUUUCUUGUACAGUUUUCUUUCUCGAUAUCAUAUUAAUCUUU :: 1
11. UCUCUUAUACACUUAUUAUUUCUCUU (ssRNA) [Id_ii_S1_P5E.4_K5.3_C5.2_[C-2A]_H5.3_A5.1_F5.1_T5.2_[A12T]] :: -1
